Molecular target: Solute carrier family 2, facilitated glucose transporter member 1 (Homo sapiens)
Test: ST_JUDE_LEISH: Cytotoxicity at 2uM final concentration against transgenic Leishmania Mexicana promastigotes LmGLUT1 that are glucose transport deficient and complemented with the human glucose transporter GLUT1. Activity is measured by DNA content using SYBR green in vitro
Type: functional
Readout label: inhibition (%)
Field format: number, assumed %, no unit text.

Recorded inhibition, per entry:
CC(C)c1ccc(CN2CCC(NC(=O)c3ccc(-c4ccccc4F)s3)CC2)cc1 = 0.51
c1ccc(CN2CCC(NCc3ccccc3-c3cccc(CNCc4ccc5c(c4)OCO5)c3)CC2)cc1 = -2.53
COc1cc(Cc2cnc(N)nc2N)cc(OCCCCc2ccc([N+](=O)[O-])cc2)c1OC = -1.12
Cc1cccc2nc(-c3ccc(-c4cccc(CN5CCC(N)C5)c4)s3)[nH]c12 (stereo not given) = 9.02
CCC(=O)Nc1ccc(C(O)CN2CCC3(C=Cc4ccccc4O3)CC2)cc1 (stereo not given) = 3.61

stdin: Please look up its inhibition: O=C(c1cccc(Br)c1)N1CCN(c2ccc([N+](=O)[O-])c(NC3CC3)c2)CC1
stdout: 4.9

stdin: Please look up its inhibition: FC(F)(F)c1cccc(N=C(S)NN=Cc2ccccn2)c1
stdout: -0.57

stdin: Please look up its inhibition: CCN1CCN(Cc2ccc(NC(=O)c3cc4ccc5cccnc5c4[nH]3)cc2)CC1
stdout: 17.2

stdin: Please look up its inhibition: CCNc1cc(C(=O)N[C@@H](Cc2ccccc2)[C@H](O)CNCCc2cc(OC)cc(OC)c2)cc(N2CCCCS2(=O)=O)c1
stdout: 7.06

stdin: Please look up its inhibition: CNC(=O)CNC(=O)COc1cccc2ccccc12
stdout: 2.49

stdin: Please look up its inhibition: CC(C)(C)c1ccc(NC(=O)c2cccc(CN3CCCN(Cc4cccc(O)c4)CC3)c2)cc1
stdout: 6.18

stdin: Please look up its inhibition: C=CCOc1ccc(-c2c(C)[nH]c(C)c(Br)c2=O)cc1
stdout: 2.12

stdin: Please look up its inhibition: COc1ccc(CC(C)CON2C(N)=NC(N)=NC2(C)C)cc1 (stereo not given)
stdout: 4.07

stdin: Please look up its inhibition: Cc1[nH]c(C)c(-c2ccc(-c3cccc(C(F)(F)F)c3)nc2)c(=O)c1Br
stdout: 9.61

stdin: Please look up its inhibition: CCOC(=O)c1ccc(NC(=O)Nc2ccc(-c3ccc(-c4nc5cccc(C)c5[nH]4)s3)cc2)cc1
stdout: 1.67

stdin: Please look up its inhibition: CCCCNS(=O)(=O)c1ccc(NC(=O)c2cc([N+](=O)[O-])ccc2Cl)cc1
stdout: 2.21

stdin: Please look up its inhibition: N#Cc1cccc(C(=O)Nc2ccc(-c3cccc(CN4CCCC4)c3)cc2)c1
stdout: 55.6

====

Target: Solute carrier family 2, facilitated glucose transporter member 1 (Homo sapiens) (UniProt P11166)
Sequence (P11166 whole entry): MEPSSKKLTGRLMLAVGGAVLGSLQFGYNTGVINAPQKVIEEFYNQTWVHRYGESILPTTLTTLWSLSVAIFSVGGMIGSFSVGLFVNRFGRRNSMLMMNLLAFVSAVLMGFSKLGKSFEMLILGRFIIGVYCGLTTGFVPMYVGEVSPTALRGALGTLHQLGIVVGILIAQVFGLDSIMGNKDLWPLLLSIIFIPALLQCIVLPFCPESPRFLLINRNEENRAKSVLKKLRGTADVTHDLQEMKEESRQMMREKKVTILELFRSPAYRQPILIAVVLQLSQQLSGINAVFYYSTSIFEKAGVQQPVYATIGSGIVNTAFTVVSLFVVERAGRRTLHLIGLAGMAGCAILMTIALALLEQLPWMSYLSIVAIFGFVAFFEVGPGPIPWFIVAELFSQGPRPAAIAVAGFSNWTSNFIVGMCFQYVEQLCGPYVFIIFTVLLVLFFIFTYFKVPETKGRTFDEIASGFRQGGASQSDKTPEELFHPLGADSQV
Experiment: ST_JUDE_LEISH: Cytotoxicity at 2uM final concentration against transgenic Leishmania Mexicana promastigotes LmGLUT1 that are glucose transport deficient and complemented with the human glucose transporter GLUT1. Activity is measured by DNA content using SYBR green in vitro
Assay type: functional
Readout label: inhibition (%)
Field format: number, assumed %, no unit text.

Recorded inhibition, per entry:
COc1cc(F)c2ncc(Cl)c(C(O)CN3CCC(NC(=O)c4ccc5c(c4)NC(=O)CS5)CC3)c2c1 (centres undefined) = 8.37
COc1cc2nc(NCc3ccc(S(N)(=O)=O)cc3)nc(Nc3ccc(Oc4ccccc4)cc3)c2cc1OC = 4.15
O=C(Nc1cc(Cl)ccc1-n1cncn1)C1(c2ccccc2)CC1 = 2.59
COc1cccc(C(=O)NC(c2ccc(Cl)cc2Cl)c2cc(Cl)c3cccnc3c2O)c1 (centres undefined) = 0.8

stdin: Please look up its inhibition: CC(=O)Nc1csc(-c2cnc(/C=C(\C)C[C@@H]3OC[C@H](C[C@@H]4O[C@H]4[C@@H](C)[C@H](C)O)[C@@H](O)[C@H]3O)o2)c1
stdout: 3.6

stdin: Please look up its inhibition: O=C(Nc1cc(Cl)cc(Cl)c1)Nc1ccccc1C(=O)NC1CCCCC1
stdout: -0.12

stdin: Please look up its inhibition: NC1CCN(Cc2ccc(-c3ccc(-c4nc5cc(F)ccc5[nH]4)cc3)cc2)C1 (centres undefined)
stdout: 6.38

stdin: Please look up its inhibition: O=C(Nc1cccc(-c2ccc(CN3CCC(O)CC3)cc2)c1)c1ccc(Cl)cc1
stdout: 2.51

stdin: Please look up its inhibition: CN1CCC(NCc2cccc(-c3ccc(S(=O)(=O)NCc4ccccc4)c(F)c3)c2)CC1
stdout: 2.09
